# SUBJECT_OF_TEST: T1, PUF4 RNA-binding domain (Saccharomyces cerevisiae, UniProt P25339 537-888)
# T1 sequence: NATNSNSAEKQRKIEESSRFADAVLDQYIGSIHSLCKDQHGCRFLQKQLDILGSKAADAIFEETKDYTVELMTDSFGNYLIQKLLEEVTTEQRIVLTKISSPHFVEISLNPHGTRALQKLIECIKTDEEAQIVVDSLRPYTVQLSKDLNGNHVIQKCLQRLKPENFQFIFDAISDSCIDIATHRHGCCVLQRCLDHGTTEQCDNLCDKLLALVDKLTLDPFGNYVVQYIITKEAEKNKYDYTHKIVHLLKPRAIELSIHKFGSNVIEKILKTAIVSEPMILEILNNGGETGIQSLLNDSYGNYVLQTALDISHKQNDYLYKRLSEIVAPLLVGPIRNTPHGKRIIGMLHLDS
# EXPERIMENT_NOTES: Mg; RNA-MaP; 20 mM Na-HEPES pH 7.4, 30 mM KOAc, 0.75 mM MgCl2, 0.1% Tween-20, 5% glycerol, 0.1 mg/mL BSA, 2 mM DTT; 25 C; 0.0125-409.6 nM protein
# RECORDED_CONDITIONS: tags: N-His6-TEV cleaved; C-SNAP kept, Cy3B-labelled; label: tethered on chip by stalled RNA polymerase
pKd: −log10 of the molar value.
Note to self: values exactly at 7 are class 1. So pKd at or above 7 is class 1, below is class 0.

BINDER	ASSIGNED_LABEL
UCUCUUUGUACCCUCUCUCUU (ssRNA) [Ic_S1_P4E.1_K4.1_C4.1_H4.1_A4.1_[T5C]_[A6C]_[T7C]_F4.1_[A9C]_T4.1]	class 1
UCUCUUUGUAGCGUUCUCUU (ssRNA) [Ic_S1_P3E.1_K3.1_C3.1_H3.1_A3.1_[T5G]_[A6C]_F3.1_[T7G]_[A8T]_T3.1]	class 0
Id_ii_S2_P4E.3_K4.2_C4.2_[C-2A]_[T-1C]_H4.2_A4.1_F4.1_T4.2_[G10A] (ssRNA) RNA: UUUGAUUAAUAUGAUAUCGUUCUUUCUACUAUAUAUUAAUUUCUUUCUCGAUAUCAUAUUAAUCUUU	class 1
Id_ii_S2_P4E.4_K4.3_C4.2_[C-2T]_[T-1C]_H4.3_A4.1_F4.1_T4.2_[G10T] (ssRNA) RNA: UUUGAUUAAUAUGAUAUCGUUCUUUCUUCACACUAUUAUUUUCUUUCUCGAUAUCAUAUUAAUCUUU	class 0
UCUCUUACUAUAUAUAGCUCUCUU (ssRNA) [Id_ii_S1_P3E.3_K3.2_C3.2_[C-2A]_[T-1C]_H3.2_A3.1_F3.1_T3.2_[T9G]_[A10C]]	class 0
UCUCUUUGUGUUAUAAUCUCUU (ssRNA) [Ib_S1_P5E.1_K5.1_C5.1_H5.1_[A4G]_A5.1_F5.1_[T9A]_T5.1]	class 1
